Every entry's value here was drawn from patent US20210380657A1.

target: HLA-A*11:01-… (human; Epstein Barr Virus); assay: HLA-peptide multimer staining and single-cell sorting of CD8+ T cells, paired TCR sequencing
MEASUREMENT LABEL: binding result

BINDER	binding result
TCR Clone 2 of Donor B5F in Table 3 (TCR, V domains shown, also called Donor B5F Clone 2) V domain 1: GESVGLHLPTLSVQEGDNSIINCAYSNSASDYFIWYKQESGKGPQFIIDIRSNMDKRQGQRVTVLLNKTVKHLSLQIAATQPGDSAVYFCAETPGGYQKVTFGTGTKLQVIP V domain 2: EAQVTQNPRYLITVTGKKLTVTCSQNMNHEYMSWYRQDPGLGLRQIYYSMNVEVTDKGDVPEGYKVSRKEKRNFPLILESPSPNQTSLYFCASSLWTSNSPLHFGNGTRLTVTE	binds
TCR Clone 1 of Donor A4T in Table 3 (TCR, V domains shown, also called Donor A4T Clone 1) V domain 1: DQQVKQNSPSLSVQEGRISILNCDYTNSMFDYFLWYKKYPAEGPTFLISISSIKDKNEDGRFTVFLNKSAKHLSLHIVPSQPGDSAVYFCAASGLVEGNTPLVFGKGTRLSVIA V domain 2: EAGVAQSPRYKIIEKRQSVAFWCNPISGHATLYWYQQILGQGPKLLIQFQNNGVVDDSQLPKDRFSAERLKGVDSTLKIQPAKLEDSAVYLCASSLFPGTGIHEQYFGPGTRLTVTE	binds
TCR Clone 3 of Donor T3V in Table 3 (TCR, V domains shown, also called Donor T3V Clone 3) V domain 1: AGQSLEQPSEVTAVEGAIVQINCTYQTSGFYGLSWYQQHDGGAPTFLSYNALDGLEETGRFSSFLSRSDSYGYLLLQELQMKDSASYFCAVPRRNNNARLMFGDGTQLVVKP V domain 2: EAQVTQNPRYLITVTGKKLTVTCSQNMNHEYMSWYRQDPGLGLRQIYYSMNVEVTDKGDVPEGYKVSRKEKRNFPLILESPSPNQTSLYFCASSLNTGMNTEAFFGQGTRLTVVE	binds
TCR Clone 4 of Donor R7Z in Table 3 (TCR, V domains shown, also called Donor R7Z Clone 4) V domain 1: AQSVTQLDSHVSVSEGTPVLLRCNYSSSYSPSLFWYVQHPNKGLQLLLKYTSAATLVKGINGFEAEFKKSETSFHLTKPSAHMSDAAEYFCVVSYLGDTGRRALTFGSGTRLQVQP V domain 2: EPEVTQTPSHQVTQMGQEVILRCVPISNHLYFYWYRQILGQKVEFLVSFYNNEISEKSEIFDDQFSVERPDGSNFTLKIRSTKLEDSAMYFCASSESGSPTGELFFGEGSRLTVLE	binds
TCR Clone 1 of Donor P6G in Table 3 (TCR, V domains shown, also called Donor P6G Clone 1) V domain 1: KQEVTQIPAALSVPEGENLVLNCSFTDSAIYNLQWFRQDPGKGLTSLLLIQSSQREQTSGRLNASLDKSSGRSTLYIAASQPGDSATYLCAVGGDDSGAGSYQLTFGKGTKLSVIP V domain 2: DSGVTQTPKHLITATGQRVTLRCSPRSGDLSVYWYQQSLDQGLQFLIQYYNGEERAKGNILERFSAQQFPDLHSELNLSSLELGDSALYFCASSRPEGIYNEQFFGPGTRLTVLE	binds

**Query** Can you look up the measured binding result of TCR Clone 3 of Donor R7Z in Table 3 (TCR, V domains shown, also called Donor R7Z Clone 3) V domain 1: AQSVAQPEDQVNVAEGNPLTVKCTYSVSGNPYLFWYVQYPNRGLQFLLKYITGDNLVKGSYGFEAEFNKSQTSFHLKKPSALVSDSALYFCAVREASGANNLFFGTGTRLTVIP V domain 2: SQTIHQWPATLVQPVGSPLSLECTVEGTSNPNLYWYRQAAGRGLQLLFYSVGIGQISSEVPQNLSASRPQDRQFILSSKKLLLSDSGFYLCAWSPQGNSPLHFGNGTRLTVTE for me?
**Result** binds

**Query** Can you look up the measured binding result of TCR Clone 5 of Donor R7Z in Table 3 (TCR, V domains shown, also called Donor R7Z Clone 5) V domain 1: GIQVEQSPPDLILQEGANSTLRCNFSDSVNNLQWFHQNPWGQLINLFYIPSGTKQNGRLSATTVATERYSLLYISSSQTTDSGVYFCAVVGNNDMRFGAGTRLTVKP V domain 2: DSGVTQTPKHLITATGQRVTLRCSPRSGDLSVYWYQQSLDQGLQFLIQYYNGEERAKGNILERFSAQQFPDLHSELNLSSLELGDSALYFCASSVAPWYEQYFGPGTRLTVTE for me?
**Result** binds

**Query** Can you look up the measured binding result of TCR Clone 1 of Donor B5F in Table 3 (TCR, V domains shown, also called Donor B5F Clone 1) V domain 1: GIQVEQSPPDLILQEGANSTLRCNFSDSVNNLQWFHQNPWGQLINLFYIPSGTKQNGRLSATTVATERYSLLYISSSQTTDSGVYFCAVLNNNDMRFGAGTRLTVKP V domain 2: DSGVTQTPKHLITATGQRVTLRCSPRSGDLSVYWYQQSLDQGLQFLIQYYNGEERAKGNILERFSAQQFPDLHSELNLSSLELGDSALYFCASSVSSWYEQFFGPGTRLTVLE for me?
**Result** binds
